From: patent US20220048967A1

molecular target: human GLP-1 receptor (GLP-1R) (human, UniProt P43220 24-463); test: cell-based or functional assay
Square brackets hold non-standard residues; d marks the D form. Ends that are not written are not given here. αMePhe(2-F) = C[C@](N)(Cc1ccccc1F)C(=O)O; αMeF = C[C@](N)(Cc1ccccc1)C(=O)O; Aib = CC(C)(N)C(=O)O
recorded endpoint: hGLP1R cAMP EC50 ratio
Please give only the number in your answer, with no unit.

## Task Need hGLP1R cAMP EC50 ratio, item YXEGTXTSDHSIXLDEKAQXHFIXYLIEGGPSSGAPPPS (Y-Aib-EGT-αMeF(2F)-TSDHSI-αMeF-LDEK((2-[2-(2-Amino-ethoxy)-ethoxy]-acetyl)2-(γ-Glu)-CO-(CH2)14-CO2H)AQ-Aib-HFI-(D-Glu)-YLIEGGPSSGAPPPS-NH2) [Example 178]
## Result 0.00349

## Task Need hGLP1R cAMP EC50 ratio, item Y[Aib]EGT[αMePhe(2-F)]TSDHSIXLDEKAQ[Aib]EFIEYLIEGGPSSGAPPPS-NH2 (not fully specified (residues 13, 17); printed as Y-Aib-EGT-αMeF(2F)-TSDHSI-αMeF-LDEK((2-[2-(2-Amino-ethoxy)-ethoxy]-acetyl)2-(γ-Glu)-CO-(CH2)18-CO2H)AQ-Aib-EFIEYLIEGGPSSGAPPPS-NH2) [Example 154]
## Result 1.23

## Task Need hGLP1R cAMP EC50 ratio, item Y[Aib]EGT[αMeF]TSDYSIXLDKKAQ[Aib]HFIEYLIEGGPSSGAPPPS-NH2 (not fully specified (residues 13, 17); printed as Y-Aib-EGT-αMeF-TSDYSI-αMeF-LDKK((2-[2-(2-Amino-ethoxy)-ethoxy]-acetyl)2-(γ-Glu)-CO-(CH2)18-CO2H)AQ-Aib-HFIEYLIEGGPSSGAPPPS-NH2) [Example 142]
## Result 1.22
